All values here come from patent US20200048308A1.

compounds and their reported IC50
- MEASUREMENT_TARGET: H1/Nca HA (biotinylated full length trimeric HA, A/New Caledonia/20/1999) (Influenza A virus, UniProt Q6WG00)
- MEASUREMENT_PROTOCOL: AlphaLISA competition assay with HB80.4, H1/NCa HA
- Type: binding, influenza A virus H1N1 A/New Caledonia/20/1999
- EXPERIMENTAL_CONDITIONS: ALC_H1_NCa_HB80.4 calculated pIC50, AlphaLISA competition with HB80.4 on H1 NCa HA, 0.5 nM HA
Where a SMILES comes first, the peptide text is derived from it.
READOUT_KIND: IC50 (nM)

[[record]]
compound = "CSCC[C@@H]1NC(=O)CNC(=O)CNC(=O)[C@H](C)NC(=O)[C@H](C(C)C)NC(=O)CNC(=O)[C@H](CC(C)C)NC(=O)[C@@H]2CCCN2C(=O)[C@H](CC(=O)O)NC(=O)[C@H](CCC(=O)O)NC(=O)[C@H](Cc2ccc(O)cc2)NC(=O)[C@H](CC(C)C)NC(=O)[C@H](CO)NC(=O)[C@H](C(C)C)NC(=O)[C@@H]2CCCN2C(=O)[C@H]2CCCN2C(=O)[C@H](Cc2ccc(O)cc2)NC(=O)[C@H](C(C)C)NC(=O)CNC1=O"
readout_kind = "IC50"
result_number = 12.6

[[record]]
compound = "CSCC[C@@H]1NC(=O)[C@H](CCC(=O)O)NC(=O)CNC(=O)[C@H](C)NC(=O)[C@H](C(C)C)NC(=O)CNC(=O)[C@H](CC(C)C)NC(=O)[C@@H]2CCCN2C(=O)[C@H](CC(=O)O)NC(=O)[C@H](CCCNC(=N)N)NC(=O)[C@H](Cc2ccc(O)cc2)NC(=O)[C@H](CC(C)C)NC(=O)[C@@H](NC(=O)CCC(=O)O)CSSC[C@@H](C(N)=O)NC(=O)CNC1=O [CP141071] (HELM PEPTIDE1{[O=C(O)CCC(=O)[*:2]].C.L.Y.R.D.P.L.G.V.A.G.E.M.G.C.[am]}$PEPTIDE1,PEPTIDE1,2:R3-16:R3$$$V2.0)"
readout_kind = "IC50"
result_number = 2000


====

- MEASUREMENT_TARGET: H1/Nca HA (biotinylated full length trimeric HA, A/New Caledonia/20/1999) (Influenza A virus, UniProt Q6WG00)
- MEASUREMENT_PROTOCOL: AlphaLISA competition assay with HB80.4, H1/NCa HA
- Format: binding, influenza A virus H1N1 A/New Caledonia/20/1999
pIC50: −log10 of the molar value. Where a SMILES comes first, the peptide text is derived from it.
READOUT_KIND: pIC50

[[record]]
molecule = "CC[C@@H]1NC(=O)[C@H](C(C)C)NC(=O)CNC(=O)[C@H](CCCc2ccccc2)NC(=O)[C@@H]2CCCN2C(=O)[C@H](CC(=O)O)NC(=O)[C@H](CCC(=O)O)NC(=O)[C@H](Cc2ccc(O)cc2)NC(=O)[C@H](CC(C)C)NC(=O)CNC(=O)[C@H]2CCCN2C(=O)CNC(=O)[C@H](CCSC)NC(=O)CNC(=O)CNC1=O [CP141092] (HELM PEPTIDE1{[Abu].G.G.M.G.[dP].G.L.Y.E.D.P.[O=C([C@H](CCCc1ccccc1)N[*:1])[*:2]].G.V}$PEPTIDE1,PEPTIDE1,1:R1-15:R2$$$V2.0)"
readout_kind = "pIC50"
result_number = 6.60

[[record]]
molecule = "CSCC[C@@H]1NC(=O)CNC(=O)CNC(=O)[C@H](C)NC(=O)[C@H](C(C)C)NC(=O)CNC(=O)[C@H](CC(C)C)NC(=O)[C@@H]2CCCN2C(=O)[C@H](CC(=O)O)NC(=O)[C@H](CCC(=O)O)NC(=O)[C@H](Cc2ccc(O)cc2)NC(=O)[C@@H](NC(=O)CCC(=O)O)CSSC[C@@H](C(N)=O)NC1=O [CP141070]"
readout_kind = "pIC50"
result_number = 5.40

[[record]]
molecule = "CCCC[C@@H]1NC(=O)[C@H](CCC(=O)O)NC(=O)CNC(=O)[C@H](C)NC(=O)[C@H](C(C)C)NC(=O)CNC(=O)[C@H](CC(C)C)NC(=O)[C@@H]2CCCN2C(=O)[C@H](CC(=O)O)NC(=O)[C@H](CCCNC(=N)N)NC(=O)[C@H](Cc2ccc(O)cc2)NC(=O)[C@@H](NC(=O)CCC(=O)O)CSSC[C@@H](C(N)=O)NC1=O [CP141089]"
readout_kind = "pIC50"
result_number = 4.30

[[record]]
molecule = "CSCC[C@@H]1NC(=O)CNC(=O)CNC(=O)[C@H](C)NC(=O)[C@H](C(C)C)NC(=O)CNC(=O)[C@H](CC(C)C)NC(=O)[C@@H]2CCCN2C(=O)[C@H](CC(=O)O)NC(=O)[C@H](CCC(=O)O)NC(=O)[C@H](Cc2ccc(O)cc2)NC(=O)[C@H](CC(C)C)NC(=O)[C@H](CO)NC(=O)[C@H]2CCCN2C(=O)CNC(=O)[C@H](C(C)C)NC(=O)CNC1=O [CP141083]"
readout_kind = "pIC50"
result_number = 5.00

